# reported Emax; entries follow
Measurement target: GABAA (α3β2γ2) subtype (Homo sapiens, UniProt P18507+P34903)
Construct: expressed in transfected cells
Sequence (P34903 29-492): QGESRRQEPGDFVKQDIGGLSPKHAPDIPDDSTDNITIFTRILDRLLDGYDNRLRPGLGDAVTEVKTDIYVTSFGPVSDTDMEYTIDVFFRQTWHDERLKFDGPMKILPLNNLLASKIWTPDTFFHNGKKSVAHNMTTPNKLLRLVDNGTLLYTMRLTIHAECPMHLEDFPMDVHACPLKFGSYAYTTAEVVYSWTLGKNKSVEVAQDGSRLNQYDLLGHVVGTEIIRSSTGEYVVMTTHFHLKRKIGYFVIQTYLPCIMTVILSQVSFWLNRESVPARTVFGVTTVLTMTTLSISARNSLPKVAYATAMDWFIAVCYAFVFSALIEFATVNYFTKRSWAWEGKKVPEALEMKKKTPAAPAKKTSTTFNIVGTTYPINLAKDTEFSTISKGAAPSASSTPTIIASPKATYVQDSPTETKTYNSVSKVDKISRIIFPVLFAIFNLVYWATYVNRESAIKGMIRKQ
Sequence (P47870 25-512 partner limits assumed): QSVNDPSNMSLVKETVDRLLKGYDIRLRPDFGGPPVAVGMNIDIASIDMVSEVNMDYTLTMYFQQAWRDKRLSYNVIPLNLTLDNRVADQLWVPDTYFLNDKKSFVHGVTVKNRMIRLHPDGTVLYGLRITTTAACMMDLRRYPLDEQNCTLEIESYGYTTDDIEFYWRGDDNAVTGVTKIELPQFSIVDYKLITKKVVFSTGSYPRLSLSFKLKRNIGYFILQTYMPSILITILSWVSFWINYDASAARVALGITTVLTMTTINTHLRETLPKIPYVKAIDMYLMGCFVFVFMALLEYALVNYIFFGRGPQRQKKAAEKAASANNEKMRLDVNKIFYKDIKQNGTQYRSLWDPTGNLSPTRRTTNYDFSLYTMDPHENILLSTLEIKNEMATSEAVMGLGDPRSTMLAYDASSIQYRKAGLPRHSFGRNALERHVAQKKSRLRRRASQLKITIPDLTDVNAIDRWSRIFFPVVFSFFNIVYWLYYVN
Sequence (P18507 40-475): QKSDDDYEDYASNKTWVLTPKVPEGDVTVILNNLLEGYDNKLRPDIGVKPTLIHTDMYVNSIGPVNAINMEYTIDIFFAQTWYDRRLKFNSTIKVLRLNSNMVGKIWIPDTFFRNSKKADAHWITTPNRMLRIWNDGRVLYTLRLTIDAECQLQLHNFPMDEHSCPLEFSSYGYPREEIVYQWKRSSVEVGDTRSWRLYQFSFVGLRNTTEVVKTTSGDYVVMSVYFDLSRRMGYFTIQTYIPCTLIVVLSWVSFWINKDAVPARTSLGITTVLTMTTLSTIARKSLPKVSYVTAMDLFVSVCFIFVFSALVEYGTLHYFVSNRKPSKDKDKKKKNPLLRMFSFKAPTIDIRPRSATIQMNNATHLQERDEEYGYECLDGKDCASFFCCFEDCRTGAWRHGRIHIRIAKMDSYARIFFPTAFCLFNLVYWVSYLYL
Assay protocol: Automated patch-clamp (QPatch) modulation of GABA-activated currents in cells stably transfected with GABAA (α3β2γ2) channels
Assay type: cell-based
Condition: stably transfected Ltk cells, 2.0 μM GABA (submaximal), whole-cell patch, holding potential −80 mV; Emax = upper asymptote of dose-response fit

O=C(O)c1cc2n(n1)-c1ccc(Br)cc1C(c1ccccc1F)=NC2 :: > 100%
O=C(O)c1cc2n(n1)-c1ccc(C3CC3)cc1C(c1ccccc1F)=NC2 :: > 100%

Param item = C[Si](C)(C)c1ccc2c(c1)C(c1ccccc1F)=NCc1cc(C(=O)O)nn1-2 ; retrieve measured Emax.
< 50%

Param item = O=C(O)c1cc2n(n1)-c1ccc(SC(F)(F)F)cc1C(c1ccccc1F)=NC2 ; retrieve measured Emax.
> 100%

Param item = Cc1ccc2c(c1)C(c1ccccc1F)=NCc1c(C(=O)O)cnn1-2 ; retrieve measured Emax.
> 100%

Param item = O=C(O)c1cc2n(n1)-c1ccc(Cl)cc1C(c1c(F)cccc1F)=NC2 ; retrieve measured Emax.
51 to 100%

Param item = O=C(O)c1cc2n(n1)-c1ccc(Cl)cc1C(c1ccccc1Cl)=NC2 ; retrieve measured Emax.
> 100%

Param item = Cc1c(C(=O)O)nn2c1CN=C(c1ccccc1F)c1cc(Cl)ccc1-2 ; retrieve measured Emax.
> 100%

Param item = O=C(O)c1cc2n(n1)-c1ccc(Cl)cc1C(c1ccccc1F)=NC2O (stereo not drawn) ; retrieve measured Emax.
< 50%

Param item = O=C(O)c1cnn2c1CN=C(c1ccccc1F)c1cc(Cl)ccc1-2 ; retrieve measured Emax.
> 100%

Param item = NS(=O)(=O)NCCNC(=O)c1cc2n(n1)-c1ccc(Cl)cc1C(c1ccccc1F)=NC2 ; retrieve measured Emax.
51 to 100%

Param item = CC1N=C(c2ccccc2F)c2cc(Cl)ccc2-n2nc(C(=O)O)cc21 (stereo not drawn) ; retrieve measured Emax.
> 100%

====

# reported Emax; entries follow
Measurement target: GABAA (α3β2γ2) subtype (Homo sapiens, UniProt P18507+P34903)
Construct: expressed in transfected cells
Assay protocol: Automated patch-clamp (QPatch) modulation of GABA-activated currents in cells stably transfected with GABAA (α3β2γ2) channels
Assay type: cell-based
Condition: stably transfected Ltk cells, 2.0 μM GABA (submaximal), whole-cell patch, holding potential −80 mV; Emax = upper asymptote of dose-response fit

O=C(O)c1nn2c(c1Br)CN=C(c1ccccc1F)c1cc(Cl)ccc1-2 :: > 100%
O=C(O)c1cc2n(n1)-c1ccc(Cl)cc1C(c1ccccc1)=NC2 :: > 100%
O=C(O)c1cc2n(n1)-c1cc(Cl)ccc1C(c1ccccc1F)=NC2 :: < 50%
O=C(O)c1cc2n(n1)-c1ccc(Cl)cc1C(c1ccccc1F)=NC2 :: > 100%
NC(=O)NCCNC(=O)c1cc2n(n1)-c1ccc(Cl)cc1C(c1ccccc1F)=NC2 :: 51 to 100%

# returns recorded Emax (system: GABAA (α3β2γ2) subtype (Homo sapiens, UniProt P18507+P34903)) for NC(=O)NCCNC(=O)c1cnn2c1CN=C(c1ccccc1F)c1cc(Cl)ccc1-2
> 100%

====

# reported Emax; entries follow
Measurement target: GABAA (α3β2γ2) subtype (Homo sapiens, UniProt P18507+P34903)
Construct: expressed in transfected cells
Assay protocol: Automated patch-clamp (QPatch) modulation of GABA-activated currents in cells stably transfected with GABAA (α3β2γ2) channels
Assay type: cell-based
Condition: stably transfected Ltk cells, 2.0 μM GABA (submaximal), whole-cell patch, holding potential −80 mV; Emax = upper asymptote of dose-response fit

Previously resolved entries follow.
C#Cc1ccc2c(c1)C(c1ccccc1F)=NCc1cc(C(=O)O)nn1-2 :: > 100%
O=C(O)c1cc2n(n1)-c1ccc(Cl)cc1C(c1cccc(F)c1F)=NC2 :: > 100%

Please turn your attention to the following entry.
# returns recorded Emax (system: GABAA (α3β2γ2) subtype (Homo sapiens, UniProt P18507+P34903)) for O=C(O)c1cc2n(n1)-c1ccccc1C(c1ccccc1F)=NC2
< 50%
